- measurement_target: T1, human CD19 on CHO cells (human, UniProt P15391 20-556)
- T1 construct: whole, on cells; also called Cells Expressing Human CD19; CHO cells overexpressing the antigen
- T1 sequence (looked up): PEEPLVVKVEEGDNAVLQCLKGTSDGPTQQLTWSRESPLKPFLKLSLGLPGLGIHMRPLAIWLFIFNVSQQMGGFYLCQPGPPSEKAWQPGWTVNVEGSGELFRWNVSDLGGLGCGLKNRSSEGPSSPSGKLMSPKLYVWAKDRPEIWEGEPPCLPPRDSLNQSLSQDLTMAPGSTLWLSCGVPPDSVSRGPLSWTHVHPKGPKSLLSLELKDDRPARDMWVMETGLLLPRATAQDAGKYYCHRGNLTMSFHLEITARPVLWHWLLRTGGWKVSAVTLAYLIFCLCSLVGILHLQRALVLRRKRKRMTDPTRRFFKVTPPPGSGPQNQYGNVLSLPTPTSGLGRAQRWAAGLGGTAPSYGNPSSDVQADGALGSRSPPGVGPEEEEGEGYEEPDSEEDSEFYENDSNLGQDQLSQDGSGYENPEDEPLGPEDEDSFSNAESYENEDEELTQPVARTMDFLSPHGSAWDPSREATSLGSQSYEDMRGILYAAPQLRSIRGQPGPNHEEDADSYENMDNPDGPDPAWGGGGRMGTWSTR
- experiment: flow cytometry, CHO cells, 100 nM IgG
assay_metric: Binding to Cells Expressing Human CD19 (FOB)

Please review the entries below; each comes with its answer.
binder | result
CNG-CD19-704 (antibody, V domains shown, tested as IgG produced in yeast) VH: QVQLQESGPGLVKPSQTLSLTCTVSGGSIASGMGVGWIRQHPGKGLEWIGHIWWDDDKRYNPALKSRVTISVDTSKNQFSLKLSSVTAADTAVYYCARMELWSYYFDGWGQGTLVTVSS VL: EIVLTQSPATLSLSPGERATLSCSASSSVSYMHWYQQKPGQAPRLLIYDTSKLASGIPARFSGSGSGTDFTLTISSLEPEDFAVYYCFQGSVYPFTFGQGTKLEIK | 140 FOB
CNG-CD19-110 (antibody, V domains shown, tested as IgG produced in yeast) VH: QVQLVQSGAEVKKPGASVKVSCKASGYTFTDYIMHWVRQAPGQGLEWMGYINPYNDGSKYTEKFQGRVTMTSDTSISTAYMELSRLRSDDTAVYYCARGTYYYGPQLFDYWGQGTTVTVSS VL: DIVMTQTPLSLSVTPGQPASISCKSSQSLETSTGTTYLNWYLQKPGQSPQLLIYRSSKRFSGVPDRFSGSGSGTDFTLKISRVEAEDVGVYYCLQLLEDPPTFGQGTKLEIK | 293 FOB
CNG-CD19-102 (antibody, V domains shown, tested as IgG produced in yeast) VH: QVQLVQSGAEVKKPGASVKVSCKASGYEFTDYIMHWVRQAPGQGLEWMGYINPYNDGSKYTEKFQPRVTMTSDTSISTAYMELSRLRSDDTAVYYCARGTYYYGPQLFDYWGQGTTVTVSS VL: DIVMTQTPLSLSVTPGQPASISCKSSQSLETSTGTTYLNWYLQKPGQSPQLLIYRVSKRFSGVPDRFSGSGSGTDFTLKISRVEAEDVGVYYCLQLLEDPYTFGQGTKLEIK | 258 FOB
CNG-CD19-109 (antibody, V domains shown, tested as IgG produced in yeast) VH: QVQLVQSGAEVKKPGASVKVSCKASGYDFTDYIVHWVRQAPGQGLEWMGYINPYNDGSLYTEKFQGRVTMTSDTSISTAYMELSRLRSDDTAVYYCARGTYYYGPQLFDYWGQGTTVTVSS VL: DIVMTQTPLSLSVTPGQPASISCKSSQQLETSTGTTYLNWYLQKPGQSPQLLIYRASKRFSGVPDRFSGSGSGTDFTLKISRVEAEDVGVYYCLQLLEDPYSFGQGTKLEIK | 334 FOB

As a next step, examine the binder that follows.
Form: binder = CNG-CD19-706 (antibody, V domains shown, tested as IgG produced in yeast) VH: QVQLQESGPGLVKPSQTLSLTCTVSGGSIASGMGVSWIRQHPGKGLEWIGHIWWDDDKRYNPALKSRVTISVDTSKNQFSLKLSSVTAADTAVYYCARMELWSYYFDPWGQGTLVTVSS VL: EIVLTQSPATLSLSPGERATLSCSASSSVGYMHWYQQKPGQAPRLLIYDTSKLASGIPARFSGSGSGTDFTLTISSLEPEDFAVYYCFQGSVYPFTFGQGTKLEIK ; Binding to Cells Expressing Human CD19 (FOB) = 241 FOB
